In this section we review reported potentiation values for a set of compounds.
Biological target: D(1A) dopamine receptor (Homo sapiens) (UniProt P21728)
Sequence (P21728 whole entry, looked up): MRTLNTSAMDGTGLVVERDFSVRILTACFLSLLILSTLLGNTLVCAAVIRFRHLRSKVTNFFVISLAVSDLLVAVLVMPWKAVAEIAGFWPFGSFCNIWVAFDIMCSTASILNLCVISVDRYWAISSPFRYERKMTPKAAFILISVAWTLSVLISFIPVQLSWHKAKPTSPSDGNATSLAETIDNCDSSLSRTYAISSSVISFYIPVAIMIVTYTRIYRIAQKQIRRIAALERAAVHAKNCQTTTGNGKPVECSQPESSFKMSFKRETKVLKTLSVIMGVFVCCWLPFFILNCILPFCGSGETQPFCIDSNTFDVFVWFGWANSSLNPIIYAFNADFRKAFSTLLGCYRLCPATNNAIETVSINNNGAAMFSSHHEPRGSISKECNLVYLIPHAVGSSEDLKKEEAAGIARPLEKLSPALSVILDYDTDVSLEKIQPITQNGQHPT
Test: Potentiators of Human D1 Dopamine Receptor: qHTS; note: 0% is about no effect
Conditions: HEK293 TREx D1 cells, calcium flux, dopamine EC20 potentiation; at 10 µM; active compounds read high
The whole screen tested about 360,000 compounds, of which about 130 (0.036%) were called active. Only a selection was taken, and actives are over-represented in it overall.
Please reply with the bare figure in % and do not write the unit itself.

Brc1ccc2c(c1)NC(c1cccnc1)=NC(c1ccccc1)=N2: 35.8
Cc1ccc(-c2cc(C(=O)Oc3ccccc3Cl)no2)cc1C: 0.6
CCc1ccccc1NC(=O)CSc1nnc(-c2ccccc2)c(-c2ccccc2)n1: 1

Recorded potentiation (compound "Cc1cccc(C)c1-n1ncc(C(=O)NCCCN2CCCCC2)c1C1CCN(C(=O)OC(C)(C)C)CC1" ): 31.8

For reference, reported potentiation for "Cc1ccc(S(=O)(=O)NC(N)=NCCC[C@@H](NC(=O)CNC(=O)c2ccccc2)C(=O)Nc2cc(C(F)(F)F)ccc2Cl)cc1" stands at 5.3

Note to self: potentiation recorded for "CC(C)c1ccc(NC(=O)Cn2nnc(C(=O)NCCc3ccccc3)c2N)cc1" was -1.7

The value of potentiation measured for the compound "COc1ccc(C2=NC(c3ccncc3)=Nc3ccc(Br)cc3N2)cc1" turned out to be 3.45

Item: CN(C)c1ccc(C(=O)NCC(=O)OC(C(=O)Nc2cc(C(F)(F)F)ccc2Cl)c2ccccc2)cc1 (centres undefined) | potentiation: -1.25

Sure, the documented potentiation for "Cc1cc2c(s1)c1cnn(Cc3cc(F)c(Cl)cc3Cl)c(=O)c1n2C" is -0.95

====

Recorded potentiation, one value per entry.
Target: D(1A) dopamine receptor (Homo sapiens)
Test: Potentiators of Human D1 Dopamine Receptor: qHTS; note: 0% is about no effect
Settings: HEK293 TREx D1 cells, calcium flux, dopamine EC20 potentiation; at 10 µM; active compounds read high
Protocol: Dopamine receptors (DARs) are involved in the etiology and/or therapy of a number of neuropsychiatric and endocrine disorders. […] Freshly passaged cells are plated in 1536 well black, clear bottom plates at a density of 4000 cells/well in 3 ul of complete media containing 1x tetracycline inducer. […] Following the 180 second read, 1 ul of an EC20 of dopamine is delivered by an onboard pipette head. […]
About 130 (0.036%) of roughly 360,000 compounds were called active. The sample as a whole holds a higher share of actives than the screen did.
Give just the number in %; leave the unit off.

Some solved entries appear below for comparison.
O=C(Cc1ccc(Cl)cc1)NCC(c1cccs1)S(=O)(=O)c1ccc(Cl)cc1 (stereo not given): -0.5
CCc1cc2c(cc3c(=O)n(CC(=O)N4CCN(c5cc(Cl)ccc5C)CC4)ncn32)s1: -2.7
COc1ccc([N+](=O)[O-])cc1C1NN=C(c2cccc3ccccc23)S1 (stereo not given): 0.861
O=c1c(NCc2cccs2)nccn1-c1ccccc1: 0.1
COc1ccc(N2CCN(C(=O)c3c(C)oc4nc(C)nc(N5CCCC5)c34)CC2)cc1: -1.55
COc1ccc(CCNS(=O)(=O)c2cc(-c3cc(C)no3)ccc2C)cc1OC: -4.9

Reported potentiation for "COc1ccccc1-c1cc(C(F)(F)F)nc(S(=O)(=O)CCCC(=O)Nc2ccc(F)cc2F)n1" was -0.1

Field potentiation (entry "CCCC(=O)Nc1cc(C(=O)NCc2ccc(OC)cc2)ccc1S(=O)(=O)c1ccc(Cl)cc1" ) reads -6.15

====

Target: D(1A) dopamine receptor (Homo sapiens)
Test: Potentiators of Human D1 Dopamine Receptor: qHTS; note: 0% is about no effect
Conditions: HEK293 TREx D1 cells, calcium flux, dopamine EC20 potentiation; at 10 µM; active compounds read high
Screen size: about 360,000 compounds; about 130 (0.036%) were called active. For the sample, actives were picked, then their nearest neighbours and some compounds at random.
measurement label: potentiation (%)
Please give a number only; it is taken to be in %.

Below: 3 molecules and their reported potentiation.
Cc1ccc(Cn2ncc3c4sc(C)cc4n(C)c3c2=O)c(C)c1: 0.9
CCOc1ccc(S(=O)(=O)c2cn(Cc3ccc(OC)cc3)c3ccc(F)cc3c2=O)cc1: -1.95
Cc1ccc(Cn2c(C)c3cnn(CC(=O)NCc4ccccc4)c(=O)c3c2C)cc1: -1.5

Lab book: potentiation of "CCN(CC)S(=O)(=O)c1ccc2c(c1)nc(CN(C)C(=O)Nc1ccc(Cl)cc1)n2C" noted as 0.4

Given item "CCN1CCN(CCCNC(=O)c2cnn(-c3ccc(C)cc3C)c2C2CCN(C(=O)OC(C)(C)C)CC2)CC1" , the value recorded as its potentiation is -2.55

====

Target: D(1A) dopamine receptor (Homo sapiens) (UniProt P21728)
Assay: Potentiators of Human D1 Dopamine Receptor: qHTS; note: 0% is about no effect
Conditions: HEK293 TREx D1 cells, calcium flux, dopamine EC20 potentiation; at 10 µM; active compounds read high
Among all 360,000 compounds or so, about 130 (0.036%) were called active. The sample as a whole holds a higher share of actives than the screen did.
# potentiation values compiled below
Please give a number only; it is taken to be in %.

Example results:
Cc1cc(NS(=O)(=O)c2ccc3oc(=O)c4ncn(C)c4c3c2)ccc1Br: -5.95
Cc1ccc(SCC(=O)Nc2ccc3oc(-c4ccccc4C)nc3c2)cc1: -0.2
CCOC(=O)Cn1c(=O)n(-c2ccccc2OC)c2nc(-c3cccc(F)c3)nc(C(N)=O)c21: -1.3

Lookup result for "CCS(=O)(=O)c1nc(S(=O)(=O)c2ccc(C)cc2)c(NCc2ccc(Cl)cc2)s1" ; measured potentiation: -2.95

# potentiation of "Cc1ccc(NC(=O)c2oc3ccc(S(=O)(=O)N4CCCCC4)cc3c2C)cc1Cl" = 3.15

The compound "Cc1ccc(-c2nc(SCc3ccc(Br)cc3)n3[nH]c(=O)cc3n2)cc1" showed potentiation equal to -0.15

Record CCCOc1ccc(NC(=O)CC2C(=O)N(c3ccccc3)C(=O)N2Cc2ccco2)cc1 (stereo not given) . Reported potentiation: -2.9

# potentiation of "O=C(NCc1nnc(C(=O)Nc2ccc(C(F)(F)F)cc2Cl)o1)c1ccccc1" = -8.2

The compound identified as "Cc1ccc(Cl)cc1N1CCN(C(=O)CN2C(=O)COc3ccc(S(=O)(=O)N4CCOCC4)cc32)CC1" registered its potentiation at 4.75

====

Target: D(1A) dopamine receptor (Homo sapiens) (UniProt P21728)
Experiment: Potentiators of Human D1 Dopamine Receptor: qHTS; note: 0% is about no effect
Conditions: HEK293 TREx D1 cells, calcium flux, dopamine EC20 potentiation; at 10 µM; active compounds read high
The campaign covered roughly 360,000 compounds. About 130 (0.036%) were called active. The sample holds actives, similar compounds and a random draw of the others, so the mix is not that of the screen.
measurement label: potentiation (%)
Give a bare numeral; the unit % is implied.

Cc1cccc(C(=O)N2c3nc(-c4ccco4)nn3C3(CCCCC3)[C@@H]3CCCC[C@@H]32)c1: -0.1
COc1ccc(OC)c(NC(=O)CSc2nc3ccccc3nc2N2CCCCC2)c1: -3.85
CC(C)c1ccc(C2CC(=O)N3CN(C4CCCCC4)CSC3=C2C#N)cc1 (stereo unspecified): 9.05

D(1A) dopamine receptor (Homo sapiens) (UniProt P21728) assay, compound "O=C(COc1ccc(Cl)cc1)N(Cc1ccco1)Cc1ccco1" , recorded potentiation = 1.05

# "Cc1csc2nc(COC(=O)c3ccccc3NC(=O)c3ccccc3Cl)cc(=O)n12" with D(1A) dopamine receptor (Homo sapiens) (UniProt P21728): potentiation is 1.1

Tested on D(1A) dopamine receptor (Homo sapiens) (UniProt P21728): "CCOc1ccc(OCC)c(NC(=O)c2c(C)nn(-c3ccccc3)c2-n2cccc2)c1" . Observed potentiation: -0.5

D(1A) dopamine receptor (Homo sapiens) (UniProt P21728) data for "COc1ccccc1CNCc1ccc(C(=O)O)s1" ; its potentiation: -0.25

Reported D(1A) dopamine receptor (Homo sapiens) (UniProt P21728) potentiation for item "CC(C)S(=O)(=O)c1oc(-c2ccc(F)cc2)nc1S(=O)(=O)c1ccc(F)cc1" was 3.35

====

We begin with a simple list: items and their reported potentiation.
Target: D(1A) dopamine receptor (Homo sapiens) (UniProt P21728)
Assay: Potentiators of Human D1 Dopamine Receptor: qHTS; note: 0% is about no effect
Details: HEK293 TREx D1 cells, calcium flux, dopamine EC20 potentiation; at 10 µM; active compounds read high
About 130 (0.036%) of roughly 360,000 compounds were called active. For the sample, actives were picked, then their nearest neighbours and some compounds at random.
Give just the number in %; leave the unit off.

Below are worked cases with known answers.
COc1cccc(C(=O)NC2CCN(C#N)CC2)c1: -6.95
COc1ccc(S(=O)(=O)Nc2cccc3cccnc23)c(N)c1: -3.75
O=C(CNC(=O)c1ccc(Cl)c(C(F)(F)F)c1)OC(C(=O)Nc1cc(C(F)(F)F)ccc1Cl)c1ccccc1 (stereo not given): 1.3

Given item Cc1cccc(NC(=O)C2CCCN2S(=O)(=O)c2cccc3nsnc23)c1C (stereo not given) , the value recorded as its potentiation is -2.95

Memo: "Cc1ccc(O)c(NC(=O)CCS(=O)(=O)c2nc(-c3ccc4c(c3)OCO4)cc(C(F)(F)F)n2)c1" , reported potentiation: -1.35

Kindly note the recorded potentiation for "O=C(Cn1c(=O)n(Cc2cccs2)c(=O)c2cccnc21)Nc1ccc(F)cc1" , which is -2.6

Measured potentiation, "O=c1n(Cc2cccc(C(F)(F)F)c2)c2ccccc2c2nc(-c3ccccc3)nn12" : 0.85

Entry under test: "Cc1ccc(-n2ncc(C(=O)N(C)Cc3ccccc3)c2-n2cccc2)cc1" . Its potentiation was -0.5

Looking up "Cc1cc(C)c(NC(=O)CSc2nc3nccnc3c(=O)n2CCc2c[nH]c3ccccc23)c(C)c1" , I found its potentiation recorded as -2.8

"CC(C)Cn1c(=O)c2ccccc2n2c(CCC(=O)N3CCN(c4cccc(Cl)c4)CC3)nnc12" has a reported potentiation of -1.35

Numbers sourced from PubChem BioAssay AID504651.
